# measurementTarget: T1, UNK ZnF1-3 (human, UniProt Q9C0B0 31-174)
# T1 sequence: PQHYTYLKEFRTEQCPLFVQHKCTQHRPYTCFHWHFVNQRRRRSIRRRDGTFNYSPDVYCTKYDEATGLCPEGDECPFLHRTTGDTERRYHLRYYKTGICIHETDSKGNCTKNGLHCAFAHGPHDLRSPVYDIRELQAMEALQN
# measurementProtocol: nsRBNS (natural sequence RNA bind-n-seq); RBNS binding buffer (assumed for nsRBNS): 25 mM Tris pH 7.5, 150 mM KCl, 3 mM MgCl2, 0.01% Triton X-100, 500 ug/ml BSA, 20 U/ml SUPERase-In, 4 C; UNK is unkempt and MSI1 is Musashi-1; names of the RNAs are library labels; protein concentration not given here; high values mean tight binding
Whole data set: some 24,000 sequences, median “enrichment r” near 0.99, cut for the highest 2% near 3.7. The full list was thinned out, with the highest values kept by preference.
outcomeMeasure: binding signal (enrichment R)
# output: bare number, implied unit enrichment R

86747786_86748123_1683_CDS_ENSMUSG00000035671_ENSMUST00000039480|mouse|control|control (ssRNA) RNA: GGGAGUUCUACAGUCCGACGAUCGUGCUGGUAGGCCAGCUUUCGCUUCUCUGGGGCUGAGUCUGGGAAAAGAGAGUGAGGCUCCUCCUCCAGGCGACAGGCCUCCAGCAGUGCCCUGCAGAGGCAGCCAAUGGGAUCCAGGGGCAACAGAGGAUUGAGCAUCA : 0.778
chr4:6320793:6320794:+_ENSMUSG00000028249_ENSMUST00000103008|mus_mus|FALSE|FALSE (ssRNA) RNA: GGGAGUUCUACAGUCCGACGAUCAGUAGGCAUGAUUGUGAUGGUAACCACAGUCCCAGCUGUUGACAGUAUAUCUGCAAUCUGAGCAUCCUUCAAGCCAAUGACGUUCUGUCCGUUGAUCUCACAGAUGUGGUGAUCAGUGAGCAACAGAGGAUUGAGCAUCA : 0.725

Then this binder:
-- ask I'd like to know its binding signal. The binder in question is 62642993_62643113_3073_3pUTR_ENSMUSG00000032244_ENSMUST00000034775|mouse|control|control (ssRNA) RNA: GGGAGUUCUACAGUCCGACGAUCCAUAUGUGUCCUCAUUCCUUUUCAUCUUACACCUAAUUAGGGAGACACCAAUGCCCUAUGGAAAGGCAGUUUCCAAUUUUUAAAGAUACAACACACAAGGACAGGGCUAGAAAAGGACGACAACAGAGGAUUGAGCAUCA
-- reply 1.66
